Provenance of the data: patent US8993595B2

- assay_info: clinical
- assay_context: human, in vivo, 400 mg, Tmax, single dose 400 mg, human volunteers
measurement_type: Tmax

**Q:** State the recorded Tmax for this entry: COc1ccc2c(O[C@H]3CCN4C(=O)N(C)CCCC/C=C\[C@@H]5C[C@@]5(C(=O)NS(=O)(=O)C5(C)CC5)NC(=O)[C@@H]4C3)cc(-c3nc(C(F)(F)F)cs3)nc2c1C
**A:** 3 h

###

- assay_info: in vivo
- assay_context: male, cynomolgus monkey, iv, 2 mg/kg
measurement_type: clearance
Form field: result (number plus unit)

**Q:** Quick check: clearance of COc1ccc2c(O[C@H]3CCN4C(=O)N(C)CCCC/C=C\[C@@H]5C[C@@]5(C(=O)NS(=O)(=O)C5(C)CC5)NC(=O)[C@@H]4C3)cc(-c3nc(C(F)(F)F)cs3)nc2c1C [Compound 52] ?
**A:** 3.83 mL/min/kg

###

- assay_info: in vitro
- Assay type: cell-based
- assay_context: human; GS4.1 cells, Cell Titer 96 AQueous One Solution
measurement_type: CC50

Some compounds with recorded CC50:
**Q:** Could you share which CC50 value was measured for COc1ccc2c(O[C@H]3CCN4C(=O)N(C)CCOC/C=C\[C@@H]5C[C@@]5(C(=O)NS(=O)(=O)C5(C)CC5)NC(=O)[C@@H]4C3)cc(-c3nc(C(F)(F)F)cs3)nc2c1C ?
**A:** > 75 µM

**Q:** # repeat for COc1ccc2c(O[C@H]3CCN4C(=O)N(C)CCCC/C=C\[C@@H]5C[C@@]5(C(=O)NS(=O)(=O)C5(C)CC5)NC(=O)[C@@H]4C3)nc(-c3nc(C(F)(F)F)cs3)nc2c1C
**A:** 10 to 75 µM

**Q:** What about COc1ccc2c(O[C@H]3CCN4C(=O)N(C)CCCC/C=C\[C@@H]5C[C@@]5(C(=O)NS(=O)(=O)C5CC5)NC(=O)[C@@H]4C3)cc(-c3nc(C(F)(F)F)cs3)nc2c1C ?
**A:** 10 to 75 µM

**Q:** // repeat for C#Cc1csc(-c2cc(O[C@H]3CCN4C(=O)N(C)CCCC/C=C\[C@@H]5C[C@@]5(C(=O)NS(=O)(=O)C5(C)CC5)NC(=O)[C@@H]4C3)c3ccc(OC)c(C)c3n2)n1 and report
**A:** 10 to 75 µM

Continuing:
**Q:** I'd like to know its CC50. The compound in question is COc1ccc2c(O[C@H]3CCN4C(=O)CCCCC/C=C\[C@@H]5C[C@@]5(C(=O)NS(=O)(=O)C5CC5)NC(=O)[C@@H]4C3)cc(-c3nc(C(F)(F)F)cs3)nc2c1C
**A:** 10 to 75 µM

**Q:** Input COc1ccc2c(O[C@H]3CCN4C(=O)N(C)CCCC/C=C\[C@@H]5C[C@@]5(C(=O)NS(=O)(=O)C5(C)CC5)NC(=O)[C@@H]4C3)cc(-c3nc(C(F)(F)F)cs3)nc2c1C
**A:** 10 to 75 µM

**Q:** Then COc1ccc2c(O[C@H]3CCN4C(=O)N(C)CCCC/C=C\[C@@H]5C[C@@]5(C(=O)NS(=O)(=O)C5(C)CC5)NC(=O)[C@@H]4C3)nc(-c3ccc(F)cc3)nc2c1C ?
**A:** > 75 µM

###

- assay_info: clinical
- assay_context: human, in vivo, Tmax, 400 mg per day, PK Day 1
measurement_type: Tmax (h)
Response body: numeric value in h, unit text excluded.

**Q:** I have this molecule here, COc1ccc2c(O[C@H]3CCN4C(=O)N(C)CCCC/C=C\[C@@H]5C[C@@]5(C(=O)NS(=O)(=O)C5(C)CC5)NC(=O)[C@@H]4C3)cc(-c3nc(C(F)(F)F)cs3)nc2c1C [Compound 52] , and I need its recorded Tmax.
**A:** 3
